# experiment: in vitro
# run.parameters: human
pIC50: −log10 of the molar value.
Quick rule: pIC50 of at least 5 means 1.0, below that means 0.0.

INSERT INTO measurements (molecule, discrete_label) VALUES
  ('C[C@H]1[C@@H](Oc2ccc(CC(=O)NC34CCC(C(=O)O)(C3)C4)cc2)O[C@@H]2O[C@@]3(C)CC[C@H]4[C@H](C)CC[C@@H]1[C@@]24OO3 [Compound 300]', 0.0),
  ('C[C@H]1[C@@H](OCC(=O)Nc2ccc(C(=O)O)cc2)O[C@@H]2O[C@@]3(C)CC[C@H]4[C@H](C)CC[C@@H]1[C@@]24OO3 [Compound 213]', 0.0),
  ('C[C@H]1[C@@H](O[C@H]2CC[C@@H](OCC(=O)O)CC2)O[C@@H]2O[C@@]3(C)CC[C@H]4[C@H](C)CC[C@@H]1[C@@]24OO3 [Compound 224]', 0.0),
  ('C[C@H]1[C@@H](O[C@H]2CC[C@@H](C(=O)NC3(C(=O)O)CC3)CC2)O[C@@H]2O[C@@]3(C)CC[C@H]4[C@H](C)CC[C@@H]1[C@@]24OO3 [Compound 262]', 0.0),
  ('C[C@H]1[C@@H](OC[C@H]2CC[C@@H](C(=O)NC34CCC(C(=O)O)(C3)C4)CC2)O[C@@H]2O[C@@]3(C)CC[C@H]4[C@H](C)CC[C@@H]1[C@@]24OO3 [Compound 295]', 0.0),
  ('C[C@H]1[C@@H](OCc2ccc(OCC(=O)O)cc2Cl)O[C@@H]2O[C@@]3(C)CC[C@H]4[C@H](C)CC[C@@H]1[C@@]24OO3 [Compound 223]', 1.0),
  ('C[C@H]1[C@@H](Oc2ccc(CC(=O)N[C@@H]3C[C@H](C(=O)O)C[C@H]3O)cc2)O[C@@H]2O[C@@]3(C)CC[C@H]4[C@H](C)CC[C@@H]1[C@@]24OO3 [Compound 299]', 1.0),
  ('C[C@H]1[C@H](OCc2c(Cl)cc(C(=O)O)cc2S(C)(=O)=O)O[C@@H]2O[C@@]3(C)CC[C@H]4[C@H](C)CC[C@@H]1[C@@]24OO3 [Compound 217]', 1.0),
  ('C[C@H]1[C@H](OCC23[C@H]4[C@H]5[C@@H]2[C@H]2[C@@H]3[C@@H]4C52C(=O)O)O[C@@H]2O[C@@]3(C)CC[C@H]4[C@H](C)CC[C@@H]1[C@@]24OO3 (stereo partly drawn) [Compound 260]', 0.0),
  ('C[C@H]1[C@@H](OC[C@H]2CC[C@@H](C(=O)Nc3ccc(C(=O)O)cc3)CC2)O[C@@H]2O[C@@]3(C)CC[C@H]4[C@H](C)CC[C@@H]1[C@@]24OO3 [Compound 287]', 1.0),
  ('C[C@H]1[C@@H](Oc2cc(F)cc(OCC(=O)O)c2)O[C@@H]2O[C@@]3(C)CC[C@H]4[C@H](C)CC[C@@H]1[C@@]24OO3 [Compound 220]', 1.0),
  ('C[C@H]1[C@@H](OCc2ccc(C(=O)N3C[C@@H](F)C[C@H]3C(=O)O)cc2)O[C@@H]2O[C@@]3(C)CC[C@H]4[C@H](C)CC[C@@H]1[C@@]24OO3 [Compound 276]', 0.0),
  ('C[C@H]1[C@@H](O[C@H]2CC[C@@H](C(=O)N[C@H]3C[C@@H](C(=O)O)C3)CC2)O[C@@H]2O[C@@]3(C)CC[C@H]4[C@H](C)CC[C@@H]1[C@@]24OO3 [Compound 228]', 0.0),
  ('C[C@H]1[C@@H](OCc2c(F)cc(C(=O)O)cc2Cl)O[C@@H]2O[C@@]3(C)CC[C@H]4[C@H](C)CC[C@@H]1[C@@]24OO3 [Compound 215]', 1.0),
  ('C[C@@H]1CC[C@H]2[C@@H](C)C(OCc3ccc(C(=O)O)cc3C(F)(F)F)O[C@@H]3O[C@@]4(C)CC[C@@H]1[C@]32OO4 (stereo partly drawn) [Compound 197]', 1.0),
  ('C[C@H]1[C@@H](Oc2c(F)cc(OCC(=O)O)cc2F)O[C@@H]2O[C@@]3(C)CC[C@H]4[C@H](C)CC[C@@H]1[C@@]24OO3 [Compound 238]', 1.0),
  ('C[C@H]1[C@@H](OC[C@H]2CC[C@@H](C(=O)N[C@H]3C[C@@H](C(=O)O)C3)CC2)O[C@@H]2O[C@@]3(C)CC[C@H]4[C@H](C)CC[C@@H]1[C@@]24OO3 [Compound 241]', 0.0),
  ('C[C@H]1[C@@H](O[C@H]2CC[C@@H](C(=O)N[C@H](C(=O)O)c3ccccc3)CC2)O[C@@H]2O[C@@]3(C)CC[C@H]4[C@H](C)CC[C@@H]1[C@@]24OO3 [Compound 189]', 0.0),
  ('C[C@H]1[C@@H](OCC23[C@H]4[C@H]5[C@@H]2[C@H]2[C@@H]3[C@@H]4C52C(=O)O)O[C@@H]2O[C@@]3(C)CC[C@H]4[C@H](C)CC[C@@H]1[C@@]24OO3 (stereo partly drawn) [Compound 253]', 0.0);
